Test target: Adenosine receptor A1 (Homo sapiens, UniProt P30542)
Sequence (P30542 whole entry): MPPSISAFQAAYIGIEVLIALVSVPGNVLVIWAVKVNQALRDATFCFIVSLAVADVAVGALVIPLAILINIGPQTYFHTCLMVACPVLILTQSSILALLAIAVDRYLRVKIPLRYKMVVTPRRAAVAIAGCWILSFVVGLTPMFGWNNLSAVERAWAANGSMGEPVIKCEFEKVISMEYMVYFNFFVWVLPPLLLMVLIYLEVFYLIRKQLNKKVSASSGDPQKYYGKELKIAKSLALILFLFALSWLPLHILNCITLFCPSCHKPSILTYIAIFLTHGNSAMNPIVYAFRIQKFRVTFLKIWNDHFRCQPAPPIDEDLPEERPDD
Test summary: A1 Adenosine Receptor Binding Assay
Assay conditions: pH 7.4; 25 °C
pEC50: −log10 of the molar value.
Measurement name: pEC50

(A) CCCOc1cc(N)nc(SCc2ccccc2)n1
(B) CC(C)COc1cc(N)nc(SCc2ccccc2)n1
Prompt: Endpoint returns the identifier whose pEC50 is numerically larger, either A or B . Answer with the label corresponding to your selection.
Completion: A

---

pKi: −log10 of the molar value.
// endpoint pKi / system Adenosine receptor A2a (Homo sapiens, UniProt P29274)

| Input smiles | pKi |
| --- | --- |
| Nc1cc(OCc2ccccc2)nc(SCc2ccccc2)n1 | < 5.00 |

// next entry
Prompt: GET /values?readout=pKi&system=Adenosine receptor A2a (Homo sapiens, UniProt P29274)&item= `CC(C)COc1cc(N)nc(SCc2ccccc2)n1`
Completion: < 5.00

---

pKi values for the molecules below.
Sequence of the target: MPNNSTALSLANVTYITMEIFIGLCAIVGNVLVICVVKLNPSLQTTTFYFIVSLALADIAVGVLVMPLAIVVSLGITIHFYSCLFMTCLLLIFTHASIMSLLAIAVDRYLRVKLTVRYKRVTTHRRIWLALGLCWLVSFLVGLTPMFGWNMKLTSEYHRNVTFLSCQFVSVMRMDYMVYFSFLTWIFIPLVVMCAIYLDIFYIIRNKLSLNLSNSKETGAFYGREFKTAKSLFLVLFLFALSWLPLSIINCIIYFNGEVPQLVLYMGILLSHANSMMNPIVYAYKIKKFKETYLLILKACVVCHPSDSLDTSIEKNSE
pKi: −log10 of the molar value.

Past entries and their recorded results:
| Input smiles | pKi |
| --- | --- |
| CCCOc1cc(N)nc(SCc2ccccc2)n1 | < 5.00 |
| CC(C)COc1cc(N)nc(SCc2ccccc2)n1 | < 5.00 |

Please turn your attention to the following entry.
Prompt: Entry `Nc1cc(OCc2ccccc2)nc(SCc2ccccc2)n1` has what pKi?
Completion: < 5.00

// provenance: BindingDB's records for doi:10.1111/cbdd.12801
